Values compiled from paper PMC7876106.

# Lookup of reported EC50 keyed by entry
- STUDY_TARGET: TERRA
- TEST_DETAILS: FP assay, compound binding to 5′ fluorescein-labeled TERRA
- CONDITION_INFO: 10 nM fluorescein-labeled probe, 3 independent experiments

{"columns": ["SMILES_CODE", "EC50 [µM]"],
 "data": [
  ["CCc1c(C)c2cc3nc(cc4nc(cc5c(CC)c(C)c(cc1[nH]2)n5C)C(C)=C4CCC(=O)O)C(CCC(=O)O)=C3C", 0.68],
  ["CN(C)c1ccc(Nc2c3ccc(NC(=O)CCN4CCCC4)cc3nc3cc(NC(=O)CCN4CCCC4)ccc23)cc1", 7.4],
  ["NCCOc1cc(C(=O)Nc2cc(OCCN)c3ccccc3n2)nc(C(=O)Nc2cc(OCCN)c3ccccc3n2)c1", 0.66]
]}
